Data provenance is BindingDB's records for doi:10.7270/Q2B27SRF.

# ASSAY_TARGET: Serine/threonine-protein kinase 33 (Homo sapiens, UniProt Q9BYT3)
# Sequence (Q9BYT3 whole entry): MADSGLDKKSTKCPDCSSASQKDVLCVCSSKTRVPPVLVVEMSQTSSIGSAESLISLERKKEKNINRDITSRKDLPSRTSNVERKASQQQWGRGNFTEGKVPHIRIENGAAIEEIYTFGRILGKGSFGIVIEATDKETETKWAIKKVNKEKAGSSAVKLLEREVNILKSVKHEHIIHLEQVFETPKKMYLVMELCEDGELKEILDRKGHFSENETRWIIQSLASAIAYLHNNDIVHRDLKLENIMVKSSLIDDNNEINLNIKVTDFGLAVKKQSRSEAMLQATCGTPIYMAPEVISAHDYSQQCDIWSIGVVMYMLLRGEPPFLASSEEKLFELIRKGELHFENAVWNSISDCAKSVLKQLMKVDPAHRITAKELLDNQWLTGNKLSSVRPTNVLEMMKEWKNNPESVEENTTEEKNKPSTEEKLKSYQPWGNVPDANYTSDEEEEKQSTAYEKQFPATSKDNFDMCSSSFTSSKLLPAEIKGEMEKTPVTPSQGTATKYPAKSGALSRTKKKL
# ASSAY_PROCEDURE: STK33 kinase inhibitors, dose response, biochemical, luminescence, cell-free, retest (AID 2821)
Record form. Attribute: EC50. Fill in for each entry.
Number in µM, nothing else.

Problem: I would be grateful if you could share the reported EC50 for COc1cccc(-c2onc3ccc(C(=O)/C=C/N(C)C)cc23)c1 .
Result: 12

Problem: What EC50 value was documented for this compound, O=C1Nc2ccccc2C1C=Nc1ccc2c(c1)OCO2 (centres undefined) ?
Result: 11.3

Problem: Please report the recorded EC50 for CCSc1nc(N2CCOCC2)c2c(c1C#N)CCCC2 .
Result: 8.86

Problem: For the compound shown here, Cc1cc(N2CCN(C)CC2)nc2ccc(NC(=O)c3ccc(Br)o3)cc12 , give the reported EC50.
Result: 10.3

----------
Assignment: determine reported EC50 for the given compounds.
# ASSAY_TARGET: Serine/threonine-protein kinase 33 (Homo sapiens, UniProt Q9BYT3)
# ASSAY_PROCEDURE: STK33 kinase inhibitors, dose response, biochemical, luminescence, cell-free, retest (AID 2821)

Problem: For C/C=C/Cn1c(SCc2ccc(Cl)cc2)nc2c1c(=O)[nH]c(=O)n2C , what is its reported EC50?
Result: > 120 µM

Problem: Given the compound COc1ccc(-c2nc(-c3ccccn3)no2)cc1 , what is its reported EC50?
Result: > 120 µM

Problem: State the recorded EC50 for this entry: CCCCCCCCCCCCCCCCn1cc[n+](C)c1 [1-cetyl-3-methyl-imidazol-3-ium;bromide]
Result: > 120 µM

Problem: Look at this compound and give its reported EC50. N#C/C(=C/C=C/c1ccccc1)C(=O)Nc1ccccc1 [2-cyano-N,5-diphenyl-2,4-pentadienamide]
Result: > 120 µM

Problem: What measured EC50 goes with CCCCCCCCCCOC(=O)Cn1c(COc2ccc(Cl)cc2)[n+](C)c2ccccc21 ?
Result: > 120 µM

Problem: Any idea what EC50 was measured for Cc1occc1C(=O)NN=Cc1ccc(N(C)C)cc1 ?
Result: > 120 µM

Problem: Value lookup for EC50; key = CCN(CC)c1ccc(Nc2nc(N3CCOCC3)c3ccccc3n2)cc1
Result: > 120 µM

Problem: Any idea what EC50 was measured for S=C(NCc1ccccc1)Nc1ccc2cn[nH]c2c1 ?
Result: > 120 µM

Problem: Look up EC50: Cc1ccc(NC(=S)Nc2ccc3cn[nH]c3c2)c(C)c1
Result: > 120 µM

Problem: Fill blank: measured EC50 of the compound O=c1c(-c2c(O)cc(O)c3c2O[C@H](c2ccc(O)cc2)CC3)c(-c2ccc(O)cc2)oc2cc(O)cc(O)c12 is ____.
Result: > 120 µM

Problem: Query (compound): S=C(Nc1cccc(Cl)c1)Nc1ccc2cn[nH]c2c1 ; field requested: EC50
Result: > 120 µM

Problem: // returns reported EC50 for input COc1ccc(O)c(-c2nc(N)nc(N)n2)c1
Result: 8.14 µM

Problem: What EC50 value was documented for this compound, CCOc1ccc(Nc2nc(N)c3ccccc3n2)cc1 ?
Result: > 120 µM

Problem: Using the record for CCCCC(CC)CNC(=N)NC(=N)NCCCCCCNC(=N)NC(=N)NCC(CC)CCCC (stereo unspecified) , report its EC50.
Result: > 120 µM

Problem: Fill in: EC50 of COc1cc(-c2cc(=O)c3c(O)c(OC)c(OC)c(O)c3o2)ccc1O is ___
Result: 9.68 µM

Problem: Given the compound Cc1cc(O)ccc1NS(=O)(=O)c1ccc2c3c(cccc13)C(=O)N2 , what is its reported EC50?
Result: 19.2 µM

----------
# ASSAY_TARGET: Serine/threonine-protein kinase 33 (Homo sapiens, UniProt Q9BYT3)
# ASSAY_PROCEDURE: STK33 kinase inhibitors, dose response, biochemical, luminescence, cell-free, retest (AID 2821)
# if measured EC50 < 20 µM: Criterion met  # else: Criterion not met

Problem: Lab log: compare recorded EC50 with 20 µM; is it strictly lower for COC1(OC)N=C(N)C2(C#N)C(c3ccc4c(c3)OCO4)C12C#N (stereo not given) ?
Result: Criterion not met

Problem: Quick check: does N=c1c2c(-c3ccccc3)c(-c3ccccc3)oc2ncn1Cc1ccco1 have EC50 under 20 µM?
Result: Criterion not met

Problem: Does the reported EC50 of the following molecule sit strictly below 20 µM? O=C1c2ccccc2C(=O)C1c1ccccn1
Result: Criterion met

Problem: Quick check: does CCc1ncc(C=C2C(=O)Nc3ccccc32)[nH]1 have EC50 under 20 µM?
Result: Criterion met

Problem: Please indicate whether the reported EC50 of CCn1c(/C=C/c2ccc([N+](=O)[O-])o2)nc2ccccc2c1=O is strictly below 20 µM.
Result: Criterion not met

Problem: EC50 strictly < 20 µM for this molecule? S=C(Nc1cccnc1)Nc1cccc2cnccc12
Result: Criterion not met

Problem: Given COc1ccc(/C=C/c2nc3ccccc3n2C)cc1 , is recorded EC50 strictly lower than 20 µM?
Result: Criterion not met

Problem: A record lists c1ccc2c3c([nH]c2c1)-c1n[nH]cc1CC3 . Is its EC50 below 20 µM?
Result: Criterion not met

Problem: Does the reported EC50 of the following molecule sit strictly below 20 µM? CCc1ccc(NC(S)=Nc2ccc3c[nH]nc3c2)cc1
Result: Criterion met
